- Tgt: human PPARα ligand-binding domain (Gal4 chimera) (Homo sapiens, UniProt Q07869)
- Construct: coding for the hinge region and LBD of the canonical isoform of the respective nuclear receptor; expressed in transfected cells; host or cells: HEK293T
- Sequence (Q07869 239-466 limits assumed): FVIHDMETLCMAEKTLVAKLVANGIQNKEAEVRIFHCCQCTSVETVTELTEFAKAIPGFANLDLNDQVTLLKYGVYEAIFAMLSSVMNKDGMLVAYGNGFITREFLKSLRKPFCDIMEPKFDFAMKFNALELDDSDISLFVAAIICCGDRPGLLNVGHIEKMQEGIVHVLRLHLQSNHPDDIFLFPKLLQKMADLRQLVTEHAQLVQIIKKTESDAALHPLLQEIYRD
- Test: Gal4 hybrid reporter gene assay, PPARα
- Format: cell-based
- Measurement conditions: EC50 [μM] PPARα, HEK293T; mean ± SEM, n = 3
Readings of EC50 for the listed compounds
Give the quantity in µM, number only.

Example compounds with recorded EC50:
## Input Please indicate EC50 recorded for O=C(O)CCc1cccc(NC(=O)c2ccc(O)cc2NC(=O)c2ccc3ccccc3c2)c1
## Output 5.3

## Input Please indicate EC50 recorded for O=C(O)CCc1cccc(NC(=O)c2cc3c(cc2NC(=O)c2ccc4ccccc4c2)OCO3)c1
## Output 0.46

## Input Please indicate EC50 recorded for O=C(O)CCc1cccc(NC(=O)c2cc(O)ccc2NC(=O)c2ccc3ccccc3c2)c1
## Output 8.9

## Input Please indicate EC50 recorded for O=C(O)CCc1cccc(NC(=O)c2ccccc2NC(=O)c2ccc(-c3cocn3)cc2)c1
## Output 20

## Input Please indicate EC50 recorded for O=C(O)CCc1cccc(NC(=O)c2ccc(Cl)cc2NC(=O)c2ccc3ccccc3c2)c1
## Output 3

## Input Please indicate EC50 recorded for O=C(O)COc1cccc(NC(=O)c2ccccc2NC(=O)c2ccc3ccccc3c2)c1
## Output 10

Next:
## Input Please indicate EC50 recorded for COc1ccc(NC(=O)c2ccc3ccccc3c2)c(C(=O)Nc2cccc(CCC(=O)O)c2)c1
## Output 0.23

###

- Tgt: human PPARδ ligand-binding domain (Gal4 chimera) (Homo sapiens, UniProt Q03181)
- Construct: coding for the hinge region and LBD of the canonical isoform of the respective nuclear receptor; expressed in transfected cells; host or cells: HEK293T
- Sequence (Q03181 211-439 limits assumed, stated change not applied): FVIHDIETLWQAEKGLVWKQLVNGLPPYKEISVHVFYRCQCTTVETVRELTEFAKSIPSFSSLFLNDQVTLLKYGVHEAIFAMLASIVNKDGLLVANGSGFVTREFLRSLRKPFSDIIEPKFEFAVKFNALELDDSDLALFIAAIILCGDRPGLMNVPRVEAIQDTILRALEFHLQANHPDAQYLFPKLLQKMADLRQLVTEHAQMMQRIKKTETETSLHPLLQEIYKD
- Test: Gal4 hybrid reporter gene assay, PPARδ
- Type: cell-based
- Set-up: dose or concentration left out as unconfirmed
- Measurement conditions: read-out: PPAR max. rel. act.
Quantity name: Emax (%)
Give the quantity in %, number only.

## Input Please indicate Emax recorded for O=C(O)CCc1cccc(NC(=O)c2ccccc2NC(=O)C2=Cc3ccccc3OC2)c1
## Output 26

## Input Please indicate Emax recorded for Cc1ccc2c(c1)C=C(C(=O)Nc1ccccc1C(=O)Nc1cccc(CCC(=O)O)c1)CO2
## Output 16

## Input Please indicate Emax recorded for O=C(O)CCc1cccc(NC(=O)c2ccccc2NC(=O)C2=Cc3cc(F)ccc3OC2)c1
## Output 20

## Input Please indicate Emax recorded for O=C(O)CCc1cccc(NC(=O)c2ccccc2NC(=O)C2=C(Cl)c3ccccc3OC2)c1
## Output 31

## Input Please indicate Emax recorded for O=C(O)CCc1cccc(NC(=O)c2ccccc2NC(=O)C2=Cc3cc(Cl)ccc3OC2)c1
## Output 14

Next:
## Input Please indicate Emax recorded for O=C(O)CCc1cccc(NC(=O)c2ccccc2NC(=O)C2=Cc3cccc(Cl)c3OC2)c1
## Output 16

## Input Please indicate Emax recorded for Cc1cccc2c1OCC(C(=O)Nc1ccccc1C(=O)Nc1cccc(CCC(=O)O)c1)=C2
## Output 18

###

- Tgt: human PPARα ligand-binding domain (Gal4 chimera) (Homo sapiens, UniProt Q07869)
- Construct: coding for the hinge region and LBD of the canonical isoform of the respective nuclear receptor; expressed in transfected cells; host or cells: HEK293T
- Test: Gal4 hybrid reporter gene assay, PPARα
- Type: cell-based
- Set-up: dose or concentration left out as unconfirmed
- Measurement conditions: read-out: max. rel. act. PPARα
Returns Criterion met if the recorded Emax is greater than or equal to 20%, and Criterion not met otherwise.

Observe how each entry below is paired with its result.
## Input Form field: Emax at least 20%? Entry: O=C(O)CCc1cccc(NC(=O)c2ccccc2NC(=O)c2ccc(-c3ccco3)cc2)c1 [compound 31]
## Output Criterion met

## Input Form field: Emax at least 20%? Entry: O=C(O)CCc1cccc(NC(=O)c2cc(OC(F)(F)F)ccc2NC(=O)c2ccc3ccccc3c2)c1 [compound 28]
## Output Criterion met

## Input Form field: Emax at least 20%? Entry: O=C(O)CCc1cccc(NC(=O)c2cc(Cl)ccc2NC(=O)c2ccc3ccccc3c2)c1 [compound 25]
## Output Criterion met

## Input Form field: Emax at least 20%? Entry: CC(C)(Nc1cccc(NC(=O)c2ccccc2NC(=O)c2ccc3ccccc3c2)c1)C(=O)O [compound 15]
## Output Criterion met

## Input Form field: Emax at least 20%? Entry: Cc1cccc(NC(=O)c2ccc3ccccc3c2)c1C(=O)Nc1cccc(CCC(=O)O)c1 [compound 19]
## Output Criterion not met

## Input Form field: Emax at least 20%? Entry: O=C(O)CCc1cccc(NC(=O)c2ccccc2NC(=O)c2ccc(-c3ccon3)cc2)c1 [compound 35]
## Output Criterion not met

Next:
## Input Form field: Emax at least 20%? Entry: O=C(O)COc1cccc(NC(=O)c2ccccc2NC(=O)c2ccc3ccccc3c2)c1 [compound 13]
## Output Criterion met

## Input Form field: Emax at least 20%? Entry: O=C(O)CCc1cccc(NC(=O)c2ccccc2NC(=O)c2ccc(-c3ccoc3)cc2)c1 [compound 32]
## Output Criterion met

## Input Form field: Emax at least 20%? Entry: O=C(O)CCc1cccc(NC(=O)c2cc3c(cc2NC(=O)c2ccc4ccccc4c2)OCO3)c1 [compound 29]
## Output Criterion met

## Input Form field: Emax at least 20%? Entry: O=C(O)CCc1cccc(NC(=O)c2ccccc2NC(=O)c2ccc(-c3ccsc3)cc2)c1 [compound 34]
## Output Criterion met

###

- Tgt: human PPARγ ligand-binding domain (Gal4 chimera) (Homo sapiens)
- Construct: coding for the hinge region and LBD of the canonical isoform of the respective nuclear receptor; expressed in transfected cells; host or cells: HEK293T
- Sequence (P37231 238-503 limits assumed, change not shown): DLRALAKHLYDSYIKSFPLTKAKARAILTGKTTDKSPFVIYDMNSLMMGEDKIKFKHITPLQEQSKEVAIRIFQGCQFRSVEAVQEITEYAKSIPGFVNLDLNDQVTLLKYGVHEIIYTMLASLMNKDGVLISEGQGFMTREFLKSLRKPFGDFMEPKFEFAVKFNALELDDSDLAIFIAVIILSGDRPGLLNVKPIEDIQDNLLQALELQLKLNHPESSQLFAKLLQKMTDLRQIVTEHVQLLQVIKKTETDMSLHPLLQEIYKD
- Test: Gal4 hybrid reporter gene assay, PPARγ
- Type: cell-based
- Set-up: dose or concentration left out as unconfirmed
- Measurement conditions: read-out: max. rel. act. PPARγ
Quantity name: Emax (%)
Give the quantity in %, number only.

Example compounds with recorded Emax:
## Input Please indicate Emax recorded for O=C(O)CCc1cccc(NC(=O)c2ccccc2NC(=O)c2ccc(-c3ccccc3)cc2)c1
## Output 16

## Input Please indicate Emax recorded for O=C(O)CCc1cccc(NC(=O)c2ccc(OC(F)(F)F)cc2NC(=O)c2ccc3ccccc3c2)c1
## Output 15

## Input Please indicate Emax recorded for Cc1cccc(C(=O)Nc2cccc(CCC(=O)O)c2)c1NC(=O)c1ccc2ccccc2c1
## Output 6

## Input Please indicate Emax recorded for O=C(O)CCc1cccc(NC(=O)c2ccccc2NC(=O)c2ccc(-c3ccsc3)cc2)c1
## Output 17

## Input Please indicate Emax recorded for O=C(O)CCc1cccc(NC(=O)c2ccc(Cl)cc2NC(=O)c2ccc3ccccc3c2)c1
## Output 6

Next:
## Input Please indicate Emax recorded for O=C(O)CCc1cccc(NC(=O)c2ccccc2NC(=O)c2ccc(-c3ccoc3)cc2)c1
## Output 38

## Input Please indicate Emax recorded for O=C(O)CCc1cccc(NC(=O)c2ccc(O)cc2NC(=O)c2ccc3ccccc3c2)c1
## Output 20

## Input Please indicate Emax recorded for O=C(O)CNc1cccc(NC(=O)c2ccccc2NC(=O)c2ccc3ccccc3c2)c1
## Output 7.7

## Input Please indicate Emax recorded for O=C(O)CCc1cccc(NC(=O)c2cc(O)ccc2NC(=O)c2ccc3ccccc3c2)c1
## Output 9

## Input Please indicate Emax recorded for O=C(O)CCc1cccc(NC(=O)c2ccccc2NC(=O)c2ccc(-c3cccs3)cc2)c1
## Output 11

## Input Please indicate Emax recorded for O=C(O)CCc1cccc(NC(=O)c2ccccc2NC(=O)c2ccc(-c3ccco3)cc2)c1
## Output 9

## Input Please indicate Emax recorded for O=C(O)CCc1cccc(NC(=O)c2ccccc2NC(=O)c2ccc(-c3cnco3)cc2)c1
## Output 16

## Input Please indicate Emax recorded for O=C(O)Cc1cccc(NC(=O)c2ccccc2NC(=O)c2ccc3ccccc3c2)c1
## Output 14

## Input Please indicate Emax recorded for O=C(O)Cc1ccccc1NC(=O)c1ccccc1NC(=O)c1ccc2ccccc2c1
## Output 17

## Input Please indicate Emax recorded for O=C(O)COc1cccc(NC(=O)c2ccccc2NC(=O)c2ccc3ccccc3c2)c1
## Output 11

## Input Please indicate Emax recorded for O=C(O)CCc1cccc(NC(=O)c2ccccc2NC(=O)c2ccc(-c3cocn3)cc2)c1
## Output 15

## Input Please indicate Emax recorded for O=C(O)CCc1cccc(NC(=O)c2ccccc2NC(=O)c2ccc3ccccc3c2)c1
## Output 19

## Input Please indicate Emax recorded for COc1ccc(C(=O)Nc2cccc(CCC(=O)O)c2)c(NC(=O)c2ccc3ccccc3c2)c1
## Output 27
